# IC50 per entry
target: HLA-A*68:02; experiment: IEDB peptide-MHC binding, cellular MHC/competitive/fluorescence; bounds were set here for any values at or beyond the usual limits of such assays; conditions: source organism: Vaccinia virus WR
Answer in µM, number only, no unit symbol.

Consider the worked cases shown below.
>  <MONOMER SEQUENCE>
ITNILGGVL

>  <VAL>
9.24

$$$$
>  <MONOMER SEQUENCE>
AAAKTPVIVV

>  <VAL>
5.25

$$$$
>  <MONOMER SEQUENCE>
KLLNMRDLI

>  <VAL>
30.2

$$$$

Q: Please report IC50 for the following sequence: `PLTGNNTITT`
Ans: 49.3

Q: Please report IC50 for the following sequence: `YTLIYRQLT`
Ans: 7.86

Q: Please report IC50 for the following sequence: `VQTLISLNSM`
Ans: 50.9

Q: Please report IC50 for the following sequence: `IASILSLET`
Ans: 7.76

Q: Please report IC50 for the following sequence: `SMMVILPDKI`
Ans: 7.29

Q: Please report IC50 for the following sequence: `SLVSKHWELT`
Ans: 16.3

---

target: HLA-A*26:01; test: IEDB peptide-MHC binding, cellular MHC/competitive/fluorescence; bounds were set here for any values at or beyond the usual limits of such assays; details: source organism: Vaccinia virus WR
# IC50 per entry

>  <MONOMER SEQUENCE>
YQNEVTPEYI

>  <TARGET OR TEST SYSTEM>
HLA-A*26:01

>  <IC50>
≥ 70 µM

$$$$

// next entry
Q: Please report IC50 for the following sequence: `SQAKKPEVRI`
Ans: ≥ 70 µM

---

target: HLA-B*51:01; test: IEDB peptide-MHC binding, cellular MHC/competitive/fluorescence; bounds were set here for any values at or beyond the usual limits of such assays; settings: source organism: Mammarenavirus machupoense
PROPERTY LABEL: IC50 (µM)
Answer in µM, number only, no unit symbol.

Q: Specify IC50 for `MLNNSFYYM` , system HLA-B*51:01.
Ans: 6.95

---

# IC50 per entry
target: HLA-A*02:02; experiment: IEDB peptide-MHC binding, purified MHC/competitive/radioactivity; bounds were set here for any values at or beyond the usual limits of such assays; details: source organism: Vaccinia virus WR
Answer in nM, number only, no unit symbol.

Q: Please report IC50 for the following sequence: `ELTTVFIKYV`
Ans: 2800

---

target: HLA-A*02:02; test: IEDB peptide-MHC binding, purified MHC/competitive/radioactivity; bounds were set here for any values at or beyond the usual limits of such assays; details: source organism: SARS-CoV1
PROPERTY LABEL: IC50 (nM)
Answer in nM, number only, no unit symbol.

Consider the worked cases shown below.
>  <MONOMER SEQUENCE>
LLLEWLAEV

>  <VAL>
0.11

$$$$
>  <MONOMER SEQUENCE>
RILGAGCFV

>  <VAL>
24

$$$$
>  <MONOMER SEQUENCE>
VMCGGSLYV

>  <VAL>
0.61

$$$$
>  <MONOMER SEQUENCE>
FLTSLLILV

>  <VAL>
2.2

$$$$
>  <MONOMER SEQUENCE>
ALIARCWYL

>  <VAL>
0.2

$$$$

Q: Please report IC50 for the following sequence: `LMANLAPHLL`
Ans: 0.23

Q: Please report IC50 for the following sequence: `IVDTVSALV`
Ans: 17

Q: Please report IC50 for the following sequence: `LVIGVAFLAV`
Ans: 2710

The measurements presented in this section are drawn from the Immune Epitope Database (IEDB).
